- System: nitrilase 1650
- Assay Method Text: Conversion of various nitriles with nitrilase 1650 (NH4 ions in supernatant, microtiter plate)
- Assay type: biochemical, Alcaligenes faecalis 1650
- Set-up: unit not given here
- Conditions: pH 7.2
Recorded Endpoint: Activity

Batch of 7 compounds: report Activity for each.
1. CCC#N [Substrate 7, propionitrile]
2. N#CCc1ccc(Br)cc1 [Substrate 6, 4-bromobenzyl cyanide]
3. N#CCc1ccc(Cl)cc1 [Substrate 5, 4-chlorobenzyl cyanide]
4. CCC(C#N)c1ccccc1 (stereo not shown) [Substrate 3, 2-phenylbutyronitrile]
5. N#CCc1ccccc1 [Substrate 4, benzyl cyanide]
6. CCCCC#N [Substrate 10, valeronitrile]
7. CC(C#N)c1ccccc1 (stereo not shown) [Substrate 2, 2-phenylpropionitrile]

[0.02, 6.2, 8.9, 0.1, 9.2, 0.47, 4.1]

---

- Test system: nitrilase 1650
- Assay Method Text: Conversion of various nitriles with nitrilase 1650 (NH4 ions in supernatant, microtiter plate)
- Assay type: biochemical, Alcaligenes faecalis 1650
- Conditions: pH 7.2
Lab note: anything with μmol/l (amount of NH4 ions produced in the supernatant) at or over 2000 µmol/L counts as fulfilled; the rest go in not fulfilled.

Compound: CC(C#N)c1ccccc1 (stereo not shown) [Substrate 2, 2-phenylpropionitrile]
Label Class: not fulfilled

Threshold query (μmol/l (amount of NH4 ions produced in the supernatant) >= 2000 µmol/L) on CCC#N [Substrate 7, propionitrile] not fulfilled

Please check the record CCC(C#N)c1ccccc1 (stereo not shown) [Substrate 3, 2-phenylbutyronitrile] and state if its μmol/l (amount of NH4 ions produced in the supernatant) is at or above 2000 µmol/L. not fulfilled

State whether the measured μmol/l (amount of NH4 ions produced in the supernatant) reaches 2000 µmol/L, counting equality as reaching it, for N#CCc1ccc(Cl)cc1 [Substrate 5, 4-chlorobenzyl cyanide] fulfilled

Please tell me: is the compound N#CCc1ccc(Br)cc1 [Substrate 6, 4-bromobenzyl cyanide] at or over 2000 µmol/L in terms of μmol/l (amount of NH4 ions produced in the supernatant)? not fulfilled

Entry N#CCc1ccccc1 [Substrate 4, benzyl cyanide] : is its μmol/l (amount of NH4 ions produced in the supernatant) no less than 2000 µmol/L? fulfilled

Quick check, μmol/l (amount of NH4 ions produced in the supernatant) >= 2000 µmol/L? CCCCC#N [Substrate 10, valeronitrile] not fulfilled
